target: PDGFRβ (Homo sapiens (Human)); test: PDGF-BB induced phosphorylation of PDGFRβ in fibroblasts (MRC5 cells, HTRF); assay type: cell-based; settings: MRC5 cells; n = 1 unless otherwise indicated; read-out: PDGFBB-induced PDGFRβ phosphorylation in MRC5 cells (IC50)
Sequence (P09619 33-1106): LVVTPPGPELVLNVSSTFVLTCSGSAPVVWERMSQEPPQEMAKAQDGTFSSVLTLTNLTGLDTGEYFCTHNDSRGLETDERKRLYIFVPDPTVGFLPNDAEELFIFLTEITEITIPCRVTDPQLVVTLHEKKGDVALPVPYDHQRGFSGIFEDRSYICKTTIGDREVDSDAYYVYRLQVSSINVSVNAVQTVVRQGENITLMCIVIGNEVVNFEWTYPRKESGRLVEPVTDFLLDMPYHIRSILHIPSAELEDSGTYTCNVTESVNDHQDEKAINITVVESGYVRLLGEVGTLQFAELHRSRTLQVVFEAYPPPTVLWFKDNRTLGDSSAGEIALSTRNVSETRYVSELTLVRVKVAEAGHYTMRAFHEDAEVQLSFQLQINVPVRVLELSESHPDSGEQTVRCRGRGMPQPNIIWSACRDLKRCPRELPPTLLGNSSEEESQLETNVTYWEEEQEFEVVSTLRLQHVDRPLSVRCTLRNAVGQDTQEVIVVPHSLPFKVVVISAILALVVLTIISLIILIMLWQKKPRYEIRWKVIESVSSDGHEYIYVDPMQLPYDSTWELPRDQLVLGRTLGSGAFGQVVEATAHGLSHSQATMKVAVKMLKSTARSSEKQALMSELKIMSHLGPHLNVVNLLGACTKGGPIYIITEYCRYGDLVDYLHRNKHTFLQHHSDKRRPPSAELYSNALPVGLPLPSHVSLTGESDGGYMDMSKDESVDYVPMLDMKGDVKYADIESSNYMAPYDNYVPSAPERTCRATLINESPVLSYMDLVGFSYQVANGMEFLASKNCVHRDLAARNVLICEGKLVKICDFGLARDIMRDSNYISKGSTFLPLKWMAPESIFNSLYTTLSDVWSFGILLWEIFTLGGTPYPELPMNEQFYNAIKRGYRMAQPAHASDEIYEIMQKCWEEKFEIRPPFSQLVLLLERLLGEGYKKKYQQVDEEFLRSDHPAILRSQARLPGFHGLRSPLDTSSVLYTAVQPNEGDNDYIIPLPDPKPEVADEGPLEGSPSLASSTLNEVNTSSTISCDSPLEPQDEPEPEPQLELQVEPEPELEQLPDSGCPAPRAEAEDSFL
measurement name: IC50 (nM)

Completed entries (count: 3):
| given smiles | IC50 / nM |
| --- | --- |
| COC(=O)c1ccc2c(c1)NC(=O)/C2=C(\Nc1ccc(C(=O)NOCCN2CCN(CCO)CC2)cc1)c1ccccc1 | 33.8 |
| COC(=O)c1cc2c(cc1C)/C(=C(/Nc1ccc(C(=O)NOCCCN3CCCCC3)cc1)c1ccccc1)C(=O)N2 | 43.8 |
| COC(=O)c1cc2c(cc1C)/C(=C(/Nc1ccc(C(=O)NOCCN3CCC(O)CC3)cc1)c1ccccc1)C(=O)N2 | 34.1 |

P: CNC(=O)CN1CCN(CCON(C)C(=O)c2ccc(N/C(=C3\C(=O)Nc4cc(C(=O)OC)ccc43)c3ccccc3)cc2)CC1
Q: COC(=O)c1cc2c(cc1C)/C(=C(/Nc1ccc(C(=O)N(OC)C3CCN(C)CC3)c(C)c1)c1ccccc1)C(=O)N2
Exercise: Please indicate which entry, P or Q , has the lower recorded IC50 value. Answer by stating the label of the chosen item.
Key: Q

A: COC(=O)c1ccc2c(c1)NC(=O)/C2=C(\Nc1ccc(C(=O)NOCCN2[C@H](C)CCC[C@@H]2C)cc1)c1ccccc1
B: CNC(=O)CN1CCN(CCONC(=O)c2ccc(N/C(=C3\C(=O)Nc4cc(C(=O)OC)ccc43)c3ccccc3)cc2)CC1
Exercise: Param pair: A , B . Output: the one whose IC50 is numerically greater. Give the chosen item's label as your response.
Key: A

Hello, the source for this data is patent US11046672B2, in case you need it.
